Cited source for all entries: patent US20220348651A1

# SYSTEM_TESTED: T1, recombinant human ENTPD2 extracellular domain (residues 29-462) with C-terminal Avi-His6 tag (human, UniProt Q9Y5L3 29-462, biotinylated on the AviTag in the epitope binning assay)
# T1 construct: also called human ENTPD2 ECD; Human ENTPD2-Avi-His6 protein
# TEST: SPR Biacore, mAb captured, ECD analyte, 25C
QUANTITY_MEASURED: kon (M⁻¹ s⁻¹)

1) ANTI-HUMAN ENTPD2 MAB6 (antibody, human IgG1, kappa, V domains shown, humanized and optimized from mAb16; human IgG1, kappa; also called Anti-ENTPD2 mAb6) VH: QVQLQESGPGLVKPSQTLSLTCTVSGYSITSGYYWNWIRQHPGKGLEWMGYISYDADNNYNPSLKNRITISRDTSKNQFSLKLSSVTAADTAVYYCAGGYYRYGLGSYSGSYYYVMDYWGQGTTVTVSS VL: DTQMTQSPSSLSVSVGDRATITCKASQSVDYEGHSYMNWYQQKPGKAPKLLIYAASNLESGVPSRFSGSGSGTDFTLTISSVQPEDFATYYCQQSNEDPPTFGGGTKLEIKR :: 350000
2) ANTI-HUMAN ENTPD2 MAB10 (antibody, human IgG1, lambda, V domains shown, also called Anti-ENTPD2 mAb10) VH: QVQLVQSGAEVKKPGSSVKVSCKASGGTFDSYAVSWVRQAPGQGLEWMGRIVPWLGFTRYAQKFQGRVTITADESTSTAYMELSSLRSEDTAVYYCARESPGYRYSFDVWDQGTLVTVSS VL: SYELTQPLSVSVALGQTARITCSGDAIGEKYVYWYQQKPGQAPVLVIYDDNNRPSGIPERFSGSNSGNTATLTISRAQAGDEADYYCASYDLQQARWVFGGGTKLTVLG :: 340000
3) ANTI-HUMAN ENTPD2 MAB4 (antibody, human IgG1, kappa, V domains shown, humanized and optimized from mAb16; human IgG1, kappa; also called Anti-ENTPD2 mAb4) VH: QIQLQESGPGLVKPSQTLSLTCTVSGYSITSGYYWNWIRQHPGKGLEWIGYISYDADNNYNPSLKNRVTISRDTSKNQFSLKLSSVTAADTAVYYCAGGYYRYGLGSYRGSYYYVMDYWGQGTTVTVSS VL: ETVLTQSPATLSVSPGERATISCKASQSVDYEGHSYMNWYQQKPGQAPRLLIYAASNLESGIPARFSGSGSGTDFTLTISSVEPEDAATYYCQQSNEDPPTFGGGTKLEIKR :: 300000
4) ANTI-HUMAN ENTPD2 MAB5 (antibody, human IgG1, kappa, V domains shown, humanized and optimized from mAb16; human IgG1, kappa; also called Anti-ENTPD2 mAb5) VH: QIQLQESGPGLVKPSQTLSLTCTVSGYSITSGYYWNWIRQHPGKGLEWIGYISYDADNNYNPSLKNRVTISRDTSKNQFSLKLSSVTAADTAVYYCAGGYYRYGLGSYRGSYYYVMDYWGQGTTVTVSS VL: ETVLTQSPATLSVSPGERATISCKASQSVDYDGNSYMNWYQQKPGQAPRLLIYAASNLESGIPARFSGSGSGTDFTLTISSVEPEDAATYYCQQSNEDPPTFGGGTKLEIKR :: 270000
5) ANTI-HUMAN ENTPD2 MAB8 (antibody, human IgG1, lambda, V domains shown, also called Anti-ENTPD2 mAb8) VH: QVQLQQSGPGLVKPSQTLSLTCAISGDSVSSSSAAWNWIRQSPSRGLEWLGRIYYRSKWYNDYAVSVKSRITINPDTSKNQFSLQLNSVTPEDTAVYYCARGSYVTSSYEGFDYWGQGTLVTVSS VL: SYELTQPLSVSVALGQTARITCSGDNLPEKYAYWYQQKPGQAPVLVIYDDNKRPSGIPERFSGSNSGNTATLTISRAQAGDEADYYCQSYGKWGWTWVFGGGTKLTVLG :: 290000
6) ANTI-HUMAN ENTPD2 MAB3 (antibody, human IgG1, kappa, V domains shown, humanized from mAb17; human IgG1, kappa; also called Anti-ENTPD2 mAb3) VH: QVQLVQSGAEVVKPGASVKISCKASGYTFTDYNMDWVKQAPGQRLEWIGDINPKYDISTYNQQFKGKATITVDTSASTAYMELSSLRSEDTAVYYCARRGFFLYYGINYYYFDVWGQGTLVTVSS VL: EIVLTQSPATLSASPGERITLSCSASSSVSYIHWYQQKPGQAPRLLIYSTSNLASGIPARFSGSGSGTFYTLTISSVEPEDAAVYYCHQWSSYPWTFGGGTKLEIKR :: 130000
